target: FGFR4 (GST-FGFR4(388-802)) (Homo sapiens (Human), UniProt P22455); assay: In-vitro biochemical kinase assay for FGFR4 (Caliper microfluidic mobility shift); conditions: read-out: Biochemical FGFR4 IC50
Sequence (P22455 388-802): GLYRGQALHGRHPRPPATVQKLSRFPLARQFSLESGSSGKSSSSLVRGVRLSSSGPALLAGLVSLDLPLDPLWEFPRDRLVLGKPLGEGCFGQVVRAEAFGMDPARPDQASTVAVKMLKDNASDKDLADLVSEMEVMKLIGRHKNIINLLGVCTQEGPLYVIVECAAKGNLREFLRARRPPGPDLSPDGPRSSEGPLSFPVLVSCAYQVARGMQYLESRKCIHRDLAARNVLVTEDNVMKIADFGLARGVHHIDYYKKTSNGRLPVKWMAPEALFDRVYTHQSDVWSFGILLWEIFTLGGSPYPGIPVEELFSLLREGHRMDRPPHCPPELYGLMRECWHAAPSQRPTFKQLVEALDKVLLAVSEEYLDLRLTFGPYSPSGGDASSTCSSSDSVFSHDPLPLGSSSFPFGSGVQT
pIC50: −log10 of the molar value.
ENDPOINT: pIC50

>>> reported_value("N#Cc1cnc(NC(=O)N2CCCc3cc(CO)c(C=O)nc32)cc1NCCF")
8.64
>>> reported_value("CN1CCN(Cc2cc3c(nc2C=O)N(C(=O)Nc2cc(NC45CC(C4)C5)c(C#N)cn2)CCC3)C(=O)C1")
8.72
>>> reported_value("CN1CCN(Cc2cc3c(nc2C=O)N(C(=O)Nc2cc(OCCO)c(C#N)cn2)CCC3)C(=O)C1")
8.64
>>> reported_value("Cc1ccc(NC(=O)N2CCOc3ccc(C=O)nc32)nc1")
6.72
>>> reported_value("COCCNc1cc(NC(=O)N2CCCc3cc(CN4C[C@@H](C)N[C@@H](C)C4)c(C=O)nc32)ncc1C#N")
8.59
>>> reported_value("COC[C@@H](Oc1cc(NC(=O)N2CCCc3cc(C(F)F)c(C=O)nc32)ncc1C#N)C(F)(F)F")
7.48
>>> reported_value("CN1CCC2(CCN(c3cc(NC(=O)N4CCCc5ccc(C=O)nc54)ncc3C#N)CC2)C1")
8.47
>>> reported_value("COC[C@@H](C)Oc1cc(NC(=O)N2CCCc3cc(CN4C(=O)OC[C@@H]4C)c(C=O)nc32)ncc1C#N")
9.70
>>> reported_value("CCc1cc(NC(=O)N2CCCc3cc(C=O)c(C=O)nc32)ncc1C#N")
7.02
>>> reported_value("N#Cc1cnc(NC(=O)N2CCCc3cc(CO)c(C=O)nc32)cc1OC1CCOCC1")
8.54
>>> reported_value("COC[C@H](C)Oc1nc(NC(=O)N2CCCc3cc(CO)c(C=O)nc32)ncc1Cl")
6.80
